Test system: Clinical Isolates
Assay: Reversal of Multi-Drug Resistance (MIC/FIC of antibiotics combined with compound 1)
Format: cell-based, Staphylococcus aureus
Conditions: Staphylococcus aureus, antibiotic alone, read-out: MIC (a)
For each record, write down the corresponding MIC.
One number for each entry, in µg/mL.

Below: 2 molecules and their reported MIC.
Ask: Field request: MIC | item: `NCC[C@H](O)C(=O)N[C@@H]1C[C@H](N)[C@@H](O[C@H]2O[C@H](CN)[C@@H](O)[C@H](O)[C@H]2O)[C@H](O)[C@H]1O[C@H]1O[C@H](CO)[C@@H](O)[C@H](N)[C@H]1O`
Result: 128

Ask: Now consider `CC[C@H]1OC(=O)[C@H](C)[C@@H](O[C@H]2C[C@@](C)(OC)[C@@H](O)[C@H](C)O2)[C@H](C)[C@@H](O[C@@H]2O[C@H](C)C[C@H](N(C)C)[C@H]2O)[C@](C)(O)C[C@@H](C)C(=O)[C@H](C)[C@@H](O)[C@]1(C)O` and answer again.
Result: 2050

Continue with the next molecule.
Ask: Field request: MIC | item: `Cc1onc(-c2ccccc2)c1C(=O)N[C@@H]1C(=O)N2[C@@H]1SC(C)(C)[C@@H]2C(=O)O`
Result: 2080
